# Test Description: solvent given as SMILES
# Test Context: in ClCCl
Measured Parameter: fluorescence lifetime (ns)

[
  {
    "Compound": "c1csc(-c2ccc(-c3ccc(-c4cccs4)s3)s2)c1",
    "Measured Parameter": "fluorescence lifetime",
    "Result": 0.44
  },
  {
    "Compound": "c1ccc(N2N=C(c3cccc4ccccc34)CC2c2ccc3ccc4cccc5ccc2c3c45)cc1 (centres undefined)",
    "Measured Parameter": "fluorescence lifetime",
    "Result": 2.01
  },
  {
    "Compound": "C(#Cc1ccc(-n2c3ccccc3c3ccccc32)cc1)c1ccccc1",
    "Measured Parameter": "fluorescence lifetime",
    "Result": 2.53
  },
  {
    "Compound": "CC(C)(C)c1ccc(-c2c3c(c(-c4ccccc4)c4cc5ccccc5cc24)Cc2c(c(-c4ccccc4)c4cc5ccccc5cc4c2-c2ccc(C(C)(C)C)cc2)C3)cc1",
    "Measured Parameter": "fluorescence lifetime",
    "Result": 2.67
  },
  {
    "Compound": "[BH3-][P+]1(c2ccccc2)c2ccccc2-c2sc3ccccc3c21 (centres undefined)",
    "Measured Parameter": "fluorescence lifetime",
    "Result": 3
  },
  {
    "Compound": "CCCCCCCCOc1cc(/C=C/c2cc[n+](Cc3ccc(C)cc3)cc2)c(OCCCCCCCC)cc1/C=C/c1cc[n+](Cc2ccc(C)cc2)cc1",
    "Measured Parameter": "fluorescence lifetime",
    "Result": 1.23
  }
]

I: CC(C)(C)NC(=O)c1cccc2ccc3c4ccccc4c4ccccc4c3c12
II: c1ccc(-c2cc3cc4cccc5c(-c6ccccc6)cc6cc7cccc2c7c3c6c45)cc1
Prompt: Please indicate which has the smaller reported fluorescence lifetime: I , or II . // respond with label for picked entry
Completion: I
(I: 1.74 ns, II: 4.21 ns)

a: CCOC(=O)/N=c1/oc2ccc(OC)cc2cc1C#N
b: CCOC(=O)/N=c1/oc2cc(N(CC)CC)ccc2cc1C#N
Prompt: Please indicate which has the smaller reported fluorescence lifetime: a , or b . // respond with label for picked entry
Completion: a

###

# Test Description: solvent given as SMILES
# Test Context: in CCCCCCC
Measured Parameter: fluorescence lifetime (ns)

[
  {
    "Molecule": "CCOC(=O)C1CC(c2c(C#N)c(C)nn2-c2ccccc2)=CN1c1ccc(Br)cc1 (stereo not given)",
    "Unit Spec": "ns",
    "fluorescence lifetime": 4.54
  },
  {
    "Molecule": "CC(=O)Nc1cc2ccc3cccc4ccc(c1)c2c34",
    "Unit Spec": "ns",
    "fluorescence lifetime": 108
  }
]

I: Cc1nn(-c2ccccc2)c(C2=NN(c3ccc(Br)cc3)[C@@H](c3ccccc3)[C@@H]2c2ccccc2)c1C#N
II: Clc1nc(Cl)nc(Nc2cc3ccc4cccc5ccc(c2)c3c45)n1
III: COc1ccc(C#Cc2ccc(C#N)cc2)cc1OC
Prompt: Arrange items by their fluorescence lifetime values in increasing order. To answer, write out the labels according to the requested order.
Completion: III, I, II
(III: 0.38 ns, I: 4.64 ns, II: 122 ns)

###

# Test Description: solvent given as SMILES
# Test Context: in CN(C)C=O
Measured Parameter: fluorescence lifetime (ns)

[
  {
    "Smiles Repr": "Cc1nn(-c2ccccc2)c(C2=NN(c3ccc(Br)cc3)[C@@H](c3ccccc3)[C@@H]2c2ccccc2)c1C#N",
    "fluorescence lifetime / ns": 4.95
  },
  {
    "Smiles Repr": "COc1cc(N(c2ccccc2)c2ccc(C=C(C#N)C#N)c(OC)c2)ccc1C=C(C#N)C#N",
    "fluorescence lifetime / ns": 0.23
  }
]

I: c1ccc(-c2oc(-c3ccccc3)c3ccccc23)cc1
II: Nc1ccc(N2C(=O)c3ccc4c5ccc6c7c(ccc(c8ccc(c3c48)C2=O)c75)C(=O)N(c2ccc(O)cc2)C6=O)cc1
Prompt: Please indicate which has the smaller reported fluorescence lifetime: I , or II . // respond with label for picked entry
Completion: II
(II: 3.1 ns, I: 5.08 ns)

###

# Test Description: solvent given as SMILES
# Test Context: in C1COCCO1
Measured Parameter: fluorescence lifetime (ns)

For orientation, consider the following solved cases.
[
  {
    "Compound": "O=C1/C(=C2\\Sc3ccc(S(=O)(=O)Nc4ccccc4)cc3C2=O)Sc2ccc(S(=O)(=O)Nc3ccccc3)cc21",
    "fluorescence lifetime (ns)": 6.06
  },
  {
    "Compound": "COc1ccc(-c2ccc(-c3ccc(C#N)s3)s2)cc1",
    "fluorescence lifetime (ns)": 0.38
  },
  {
    "Compound": "O=C(O)c1c2ccccc2nc2ccccc12",
    "fluorescence lifetime (ns)": 0.9
  },
  {
    "Compound": "COC(=O)C(Cc1ccc2oc(-c3ccc(-n4c5ccccc5c5ccccc54)cc3)nc2c1)NC(=O)OC(C)(C)C (stereo unspecified)",
    "fluorescence lifetime (ns)": 2.49
  }
]

A: O=C(O)c1ccccc1Nc1cccc(C(F)(F)F)c1
B: c1ccc(-c2nc(-c3nc(-c4ccccc4)c(-c4ccccc4)o3)oc2-c2ccccc2)cc1
Prompt: Please indicate which has the smaller reported fluorescence lifetime: A , or B . // respond with label for picked entry
Completion: B
(B: 1.22 ns, A: 3.97 ns)

###

# Test Description: solvent given as SMILES
# Test Context: in CCCCCC
Measured Parameter: fluorescence lifetime (ns)

[
  {
    "Compound": "COc1ccc(N(c2ccc(OC)cc2)c2cc3ccc4cc(B(c5c(C)cc(C)cc5C)c5c(C)cc(C)cc5C)cc5ccc(c2)c3c45)cc1",
    "fluorescence lifetime / ns": 7.7
  },
  {
    "Compound": "COc1cccc(OC)c1C1=C2C(C)=CC(C)=[N+]2[B-](F)(F)n2c(C)cc(C)c21",
    "fluorescence lifetime / ns": 6.26
  },
  {
    "Compound": "c1ccc2c(c1)CCc1c-2cnc2c1-c1ccccc1CC2",
    "fluorescence lifetime / ns": 3.14
  },
  {
    "Compound": "c1ccc2c(-c3cc(-c4nccs4)nc(-c4nccs4)c3)cccc2c1",
    "fluorescence lifetime / ns": 2.24
  },
  {
    "Compound": "COC(=O)c1ccc(C#Cc2ccccc2)cc1",
    "fluorescence lifetime / ns": 0.55
  },
  {
    "Compound": "CCc1c(C)[nH]c(C2=[N+]3C(=Cc4c(C)cc(C)n4[B-]3(F)F)c3ccccc32)c1C",
    "fluorescence lifetime / ns": 7.03
  },
  {
    "Compound": "O=C1c2ccccc2C(=O)C1C1C(=O)c2c3ccccc3cc3cc4ccccc4c1c23 (stereo not drawn)",
    "fluorescence lifetime / ns": 12.9
  },
  {
    "Compound": "CC(C)(C)c1cc2ccc3cc(C(C)(C)C)cc4c(N(c5ccccc5)c5ccccc5)cc(c1)c2c34",
    "fluorescence lifetime / ns": 3.1
  },
  {
    "Compound": "CCCCCCC(CCCCCC)N1C(=O)c2cccc3c(-c4ccc(C#N)cc4)ccc(c23)C1=O",
    "fluorescence lifetime / ns": 1.02
  },
  {
    "Compound": "COc1ccc2c(c1)N(c1ccccc1-c1ccccc1)c1cc3c(cc1=N2)Oc1c(cc(C(C)(C)C)cc1C(C)(C)C)N=3",
    "fluorescence lifetime / ns": 0.45
  }
]

P: CC(C)(C)c1ccc2ccc3c(C(C)(C)C)ccc4ccc1c2c43
Q: O=C1OC(=O)c2ccc(N(c3ccccc3)c3c4ccccc4cc4ccccc34)c3cccc1c23
R: COc1c2ccccc2c(-c2ccccc2)c2ccccc12
S: C(=C\c1ccc(N(c2ccccc2)c2ccccc2)cc1)/c1ccccc1
T: C(=C\c1ccc(Nc2ccccc2)cc1)/c1ccccc1
Prompt: Arrange items by their fluorescence lifetime values in increasing order. To answer, write out the labels according to the requested order.
Completion: T, S, R, Q, P

I: Cc1ccc(-n2cccc2)cc1
II: CC1=CC(C)=[N+]2C1=Cc1cccn1[B-]2(F)F
Prompt: Of the two listed items, I and II , which carries the larger fluorescence lifetime figure? // respond with label for picked entry
Completion: II

###

# Test Description: solvent given as SMILES
# Test Context: in C1CCOC1
Measured fluorescence lifetime of individual entries
Write down the numeric answer in ns and omit the unit.

For orientation, consider the following solved cases.
[
  {
    "Smiles Repr": "CCOC(=O)C1=CN(c2ccccc2)C=C(C(=O)OCC)C1c1ccccc1",
    "Result": 8.98
  },
  {
    "Smiles Repr": "CN(C)c1ccc(C2=Cc3cc(Cl)nc[n+]3[B-](F)(F)O2)cc1",
    "Result": 2.6
  },
  {
    "Smiles Repr": "C(=C\\c1ccc(N(c2ccc(/C=C/c3ccc(N(c4ccccc4)c4ccccc4)cc3)cc2)c2ccc(/C=C/c3ccc(/C=C/c4ccc(N(c5ccc(/C=C/c6ccc(N(c7ccccc7)c7ccccc7)cc6)cc5)c5ccc(/C=C/c6ccc(N(c7ccccc7)c7ccccc7)cc6)cc5)cc4)c4nsnc34)cc2)cc1)/c1ccc(N(c2ccccc2)c2ccccc2)cc1",
    "Result": 1.83
  }
]

The record that follows has no fluorescence lifetime shown yet.
Prompt: I have this molecule here, N#Cc1ccc(-c2ccc3c(c2)c2cc(-c4ccc(C#N)cc4)ccc2c2c3nc(-c3ccc(-c4ccc(N(c5ccccc5)c5ccccc5)cc4)cc3)n2-c2ccccc2)cc1 , and I need its recorded fluorescence lifetime.
Completion: 1.51

Cited source for all entries: the Deep4Chem optical property database
